system: ryegrass, Italian (Italian ryegrass, Lolium multiflorum); assay: Test A preemergence; assay type: in vivo; conditions: Lolium multiflorum, pre-emergence, 240 h, 125 g ai/ha, preemergence; 0 to 100 scale where 0 is no effect and 100 is complete control; approx. 10 d; read-out: Ryegrass, Italian plant response rating
measured.property: pest or weed control at 125 g/ha (%)

[[record]]
structure_smiles = "CN1C[C@H](c2cc(C(F)F)cs2)[C@@H](C(=O)Nc2cccc(F)c2C#N)C1=O"
tgt = "ryegrass, Italian (Italian ryegrass, Lolium multiflorum)"
measured_property = "pest or weed control at 125 g/ha"
unit_symbol = "%"
value_observed = 0

[[record]]
structure_smiles = "O=C1NCC[C@H](c2cccc(Cl)c2)[C@H]1C(=O)Nc1ccccc1F"
tgt = "ryegrass, Italian (Italian ryegrass, Lolium multiflorum)"
measured_property = "pest or weed control at 125 g/ha"
unit_symbol = "%"
value_observed = 0

[[record]]
structure_smiles = "Cc1cc([C@H]2CN(C)C(=O)[C@@H]2C(=O)Nc2cccc(F)c2F)ccc1Br"
tgt = "ryegrass, Italian (Italian ryegrass, Lolium multiflorum)"
measured_property = "pest or weed control at 125 g/ha"
unit_symbol = "%"
value_observed = 50

[[record]]
structure_smiles = "COc1cccc([C@H]2CN(C)C(=O)[C@@H]2C(=O)Nc2cccc(F)c2F)c1"
tgt = "ryegrass, Italian (Italian ryegrass, Lolium multiflorum)"
measured_property = "pest or weed control at 125 g/ha"
unit_symbol = "%"
value_observed = 20

[[record]]
structure_smiles = "CC(C)Oc1ccc([C@H]2CNC(=O)[C@@H]2C(=O)Nc2ccc(F)cc2F)cc1"
tgt = "ryegrass, Italian (Italian ryegrass, Lolium multiflorum)"
measured_property = "pest or weed control at 125 g/ha"
unit_symbol = "%"
value_observed = 0

[[record]]
structure_smiles = "COc1cccc([C@H]2CN(C)C(=O)[C@@H]2C(=O)Nc2ccc(F)c(F)c2F)c1"
tgt = "ryegrass, Italian (Italian ryegrass, Lolium multiflorum)"
measured_property = "pest or weed control at 125 g/ha"
unit_symbol = "%"
value_observed = 0

[[record]]
structure_smiles = "CC(C)Oc1ccc([C@H]2CNC(=O)[C@@H]2C(=O)Nc2cccc(F)c2F)cc1"
tgt = "ryegrass, Italian (Italian ryegrass, Lolium multiflorum)"
measured_property = "pest or weed control at 125 g/ha"
unit_symbol = "%"
value_observed = 0

[[record]]
structure_smiles = "CN1C[C@H](c2cc(C(F)F)cs2)[C@@H](C(=O)Nc2cccc(C#N)c2F)C1=O"
tgt = "ryegrass, Italian (Italian ryegrass, Lolium multiflorum)"
measured_property = "pest or weed control at 125 g/ha"
unit_symbol = "%"
value_observed = 0


* * *

Each entry below carries its reported pest or weed control at 125 g/ha.
system: ragweed (common ragweed, Ambrosia elatior); assay: Test A preemergence; type: in vivo; conditions: Ambrosia artemisiifolia, pre-emergence, 240 h, Preemergence, 125 g ai/ha; 0 to 100 scale (0 no effect, 100 complete control); read-out: Plant response rating, Ragweed
measured.property: pest or weed control at 125 g/ha (%)

[[record]]
compound = "CN1C[C@H](c2cccc(C(C)(F)F)c2)[C@@H](C(=O)Nc2ccccc2S(C)(=O)=O)C1=O"
measured_property = "pest or weed control at 125 g/ha"
value_observed = 0

[[record]]
compound = "Cc1ccc([C@H]2CN(C)C(=O)[C@@H]2C(=O)Nc2ccc(F)c(F)c2F)cc1"
measured_property = "pest or weed control at 125 g/ha"
value_observed = 50

[[record]]
compound = "CN1C[C@H](c2csc3c2CCC(F)(F)C3)[C@@H](C(=O)Nc2ccccc2S(C)(=O)=O)C1=O (racemic)"
measured_property = "pest or weed control at 125 g/ha"
value_observed = 0

[[record]]
compound = "CN1C[C@H](c2cccc(C(F)(F)F)c2)[C@@H](C(=O)Nc2ccc(F)c(F)c2F)C1=O"
measured_property = "pest or weed control at 125 g/ha"
value_observed = 0

[[record]]
compound = "Cc1ccc([C@H]2CN(C)C(=O)[C@@H]2C(=O)Nc2ccccc2F)cc1Cl"
measured_property = "pest or weed control at 125 g/ha"
value_observed = 0

[[record]]
compound = "O=C1NC[C@H](c2cnc(C(F)(F)F)nc2)[C@H]1C(=O)Nc1cccc(F)c1F"
measured_property = "pest or weed control at 125 g/ha"
value_observed = 0

[[record]]
compound = "CN1C[C@H](c2ccc(Br)cc2)[C@@H](C(=O)Nc2ccc(F)c(F)c2F)C1=O"
measured_property = "pest or weed control at 125 g/ha"
value_observed = 90

